# tested_target: PIM1 (Homo sapiens, UniProt P11309)
# Sequence (P11309 whole entry): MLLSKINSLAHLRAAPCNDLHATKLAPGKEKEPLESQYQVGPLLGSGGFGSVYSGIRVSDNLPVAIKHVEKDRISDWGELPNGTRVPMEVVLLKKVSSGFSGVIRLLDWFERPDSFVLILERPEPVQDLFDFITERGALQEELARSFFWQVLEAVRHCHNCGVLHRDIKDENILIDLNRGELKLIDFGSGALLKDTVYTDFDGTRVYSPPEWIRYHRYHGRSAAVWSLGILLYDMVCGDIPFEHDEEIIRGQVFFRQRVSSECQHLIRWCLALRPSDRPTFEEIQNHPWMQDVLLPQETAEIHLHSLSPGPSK
# assay_overview: Pim-1 protein kinase assay (Procedure 1), Table 1
# Assay type: biochemical
# Parameters: purchased Upstate 14-573
experimental_readout: IC50 (nM)
Answers are plain numbers, in nM.

Worked examples, 4 molecules total:
molecule="CCOc1ccc(/C=C2\\SC(=O)NC2=O)cc1 [Compound D15]" tested_target="PIM1 (Homo sapiens, UniProt P11309)" experimental_readout=IC50 quantity_unit=nM experimental_value=170
molecule="Cc1cccc(/C=C2\\SC(=O)NC2=O)c1 [Compound D4]" tested_target="PIM1 (Homo sapiens, UniProt P11309)" experimental_readout=IC50 quantity_unit=nM experimental_value=160
molecule="O=C1NC(=O)/C(=C/c2cccc(OC(F)(F)F)c2)S1 [Compound D7]" tested_target="PIM1 (Homo sapiens, UniProt P11309)" experimental_readout=IC50 quantity_unit=nM experimental_value=67
molecule="CN(C)c1ccc(/C=C2/C(=O)NC(=O)N2Cc2ccccc2)cc1 [Compound D31]" tested_target="PIM1 (Homo sapiens, UniProt P11309)" experimental_readout=IC50 quantity_unit=nM experimental_value=78000

Each of the following entries comes with a recorded value; kindly state IC50 for each.
1. O=C1NC(=O)N(Cc2ccccc2)/C1=C\c1ccc(Br)cc1 [Compound D30]
2. O=C1NC(=O)/C(=C/c2ccc(C(F)(F)F)cc2)S1 [Compound D18]
3. COc1cccc(/C=C2\SC(=O)NC2=O)c1 [Compound D6]
4. O=C1NC(=O)/C(=C/c2cccc(OC(F)(F)C(F)F)c2)S1 [Compound D8]
5. O=C1NC(=O)/C(=C/c2cccc(Cl)c2)S1 [Compound D2]
6. CCc1ccc(/C=C2\SC(=O)NC2=O)cc1 [Compound D13]

Output line:
[58000, 330, 650, 73, 600, 600]

###

# tested_target: PIM1 (Homo sapiens, UniProt P11309)
# assay_overview: biochemical
experimental_readout: IC50 (nM)
Answers are plain numbers, in nM.

Input line: Return the recorded IC50 value; entry: CCCOc1ccc(/C=C2\SC(=O)NC2=O)cc1
Output line: 63

###

# tested_target: UniProt P11309
# assay_overview: Pim-1 protein kinase assay (Procedure 1), Table 1
# Assay type: biochemical
# Design: purchased Upstate 14-573
pIC50: −log10 of the molar value.
Param threshold (5) applies to pIC50; output y when value >= threshold, n when value < threshold.

Solved cases (3 shown):
compound="COc1ccc(/C=C2\\SC(=O)NC2=O)cc1 [Compound D14]" category=y
compound="CCCOc1ccc(/C=C2\\SC(=O)NC2=O)cc1 [Compound D16]" category=y
compound="O=C1NC(=O)/C(=C/c2cccc(Br)c2)S1 [Compound D3]" category=n

Input line: Textbook exercise: given the entry O=C1NC(=O)/C(=C/c2cccc(F)c2)S1 [Compound D1] , state whether its pIC50 is greater than or equal to 5.
Output line: y

Input line: Textbook exercise: given the entry O=C1NC(=O)/C(=C/c2ccc(Br)cc2)S1 [Compound D11] , state whether its pIC50 is greater than or equal to 5.
Output line: n

###

Here we list compounds with their recorded pIC50 when tested on PIM2 (Homo sapiens, UniProt Q9P1W9).
Sequence (Q9P1W9 whole entry): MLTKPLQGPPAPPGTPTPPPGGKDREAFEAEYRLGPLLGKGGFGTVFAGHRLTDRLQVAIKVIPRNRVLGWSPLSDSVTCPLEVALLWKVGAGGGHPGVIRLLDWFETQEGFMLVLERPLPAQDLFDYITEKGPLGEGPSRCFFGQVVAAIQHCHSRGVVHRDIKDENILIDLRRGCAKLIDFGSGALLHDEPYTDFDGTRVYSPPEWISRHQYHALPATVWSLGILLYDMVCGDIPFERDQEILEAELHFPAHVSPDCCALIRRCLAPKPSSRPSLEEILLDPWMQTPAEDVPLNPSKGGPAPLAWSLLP
Numbers only, as −log10 of the molar value.

Worked examples, 5 compounds total:
compound=O=C1NC(=O)/C(=C/c2cccc(C(F)(F)F)c2)S1 experimental_value=7.00
compound=O=C1NC(=O)/C(=C/c2cccc(OC(F)(F)C(F)F)c2)S1 experimental_value=5.66
compound="O=C1NC(=O)/C(=C/c2cccc(Cl)c2)S1 [Compound D2]" experimental_value=6.40
compound=Cc1cccc(/C=C2\SC(=O)NC2=O)c1 experimental_value=7.00
compound=CN(C)c1ccc(/C=C2\SC(=O)NC2=O)cc1 experimental_value=7.00

Each of the following entries comes with a recorded value; kindly state pIC50 for each.
1. CCc1ccc(/C=C2\SC(=O)NC2=O)cc1
2. CCOc1ccc(/C=C2\SC(=O)NC2=O)cc1
3. Cc1ccc(/C=C2\SC(=O)NC2=O)cc1
4. O=C1NC(=O)/C(=C/c2cccc(F)c2)S1 [Compound D1]

Output line:
[6.52, 4.37, 5.36, 6.40]

Input line: Lab note: PIM2 (Homo sapiens, UniProt Q9P1W9) assay, enter pIC50 for CCCOc1ccc(/C=C2\SC(=O)NC2=O)cc1 here
Output line: 7.70
